Record form. Attribute: normalized growth. Fill in for each entry.
test: chemical genetic growth profiling, strain panel (AID 1159580);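 further: tested at 20 µM; growth read once vehicle control cultures reached saturation at 30 °C; 1 = growth at the plate median or of vehicle wells; lower values mean less growth of the strain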
testContext: S. cerevisiae deletion strains, growth OD, locus YGR078C, strain PAC10, stronger effect = lower value
In all, about 5,500 compounds went through this assay and about 2,000 (36%) were called active. Not shown: some 18% with an inconclusive outcome. The list shows a part of the results.
Reply with the value as a number alone.

Field normalized growth (entry CO[C@@H]1C[C@@H](C[C@H]2CC[C@H](C)[C@H]([C@@H](C)C(=O)O)O2)O[C@]2(O[C@](C)([C@H]3CC[C@@](C)(C4O[C@@H](C5O[C@@](O)(CO)[C@H](C)C[C@@H]5C)C[C@@H]4C)O3)C[C@H]2C)[C@@H]1C (stereo partly drawn) ) reads 1.02

Field normalized growth (entry COC(=O)c1cc(OC)c(OC)cc1NS(=O)(=O)c1ccc(C)cc1 ) reads 0.989

Field normalized growth (entry COc1cc(/C=C/C(=O)O)cc(OC)c1OC ) reads 1.01

Field normalized growth (entry CCN(CC)CCCCCCCCOC(=O)c1cc(OC)c(OC)c(OC)c1 ) reads 1.01

Field normalized growth (entry COc1ccc(C[C@H](N)C(=O)N[C@@H]2[C@@H](CO)OC(n3cnc4c(N(C)C)ncnc43)[C@@H]2O)cc1 (stereo partly drawn) ) reads 0.99

Field normalized growth (entry CN(C)c1ccc(/C=N\NC(=O)CCc2ccc(O)cc2)c(Cl)c1 ) reads 1.02

Field normalized growth (entry C[C@H](Cc1ccc2c(c1)OC(C(=O)O)(C(=O)O)O2)NC[C@H](O)c1cccc(Cl)c1 ) reads 1.01

Field normalized growth (entry NCCCCN=C(N)N ) reads 1

---

test: chemical genetic growth profiling, strain panel (AID 1159580);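 further: tested at 20 µM; growth read once vehicle control cultures reached saturation at 30 °C; 1 = growth at the plate median or of vehicle wells; lower values mean less growth of the strain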
testContext: S. cerevisiae deletion strains, growth OD, locus YKL009W, strain mrt4, stronger effect = lower value
The whole screen tested about 5,500 compounds, of which about 2,000 (36%) were called active. Roughly 18% stayed inconclusive and do not appear here. This is one part of the list.
readout: normalized growth
Reply with the value as a number alone.

Field normalized growth (entry Nc1nc(N)c2nc(CNc3ccc(C(=O)NC(CCC(=O)O)C(=O)O)cc3)cnc2n1 (centres undefined) ) reads 0.972

Field normalized growth (entry COc1cc(C(=O)O)cc(OC)c1O ) reads 0.983

Field normalized growth (entry O=C(O)CCCCCCCCCCCCC1C=CCC1 (centres undefined) ) reads 0.972

Field normalized growth (entry COc1cc(/C=C/C(=O)O)ccc1O ) reads 1.01

Field normalized growth (entry CC(=O)OCC(=O)[C@@]12OC(C)(C)O[C@@H]1CC1C3C[C@H](F)C4=CC(=O)C=C[C@]4(C)[C@@]3(F)[C@@H](O)C[C@@]12C (some centres undefined) ) reads 1.01

Field normalized growth (entry Nc1nccs1 ) reads 0.985

Field normalized growth (entry NCCCCN=C(N)N ) reads 1

Field normalized growth (entry OCC(S)CS (centres undefined) ) reads 1

Field normalized growth (entry Nc1nc2c(c(=O)[nH]1)N(C=O)C(CNc1ccc(C(=O)N[C@@H](CCC(=O)O)C(=O)O)cc1)CN2 (some centres undefined) ) reads 0.996

---

test: chemical genetic growth profiling, strain panel (AID 1159580);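 further: tested at 20 µM; growth read once vehicle control cultures reached saturation at 30 °C; 1 = growth at the plate median or of vehicle wells; lower values mean less growth of the strain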
testContext: S. cerevisiae deletion strains, growth OD, locus YOL147C, strain pex11, stronger effect = lower value
The whole screen tested about 5,500 compounds, of which about 2,000 (36%) were called active. Not shown: some 18% with an inconclusive outcome. The list shows a part of the results.
readout: normalized growth
Reply with the value as a number alone.

Field normalized growth (entry CC12CCC3C(CC=C4CC(O)CCC43C)C1CCC2=O (stereo not given) ) reads 0.91

Field normalized growth (entry COc1ccc(-c2cc(C(F)F)nn2-c2ccc(S(N)(=O)=O)cc2)cc1F ) reads 1.01

Field normalized growth (entry O=C1O[C@@H](CO)[C@H](O)[C@@H](O)[C@@H]1O ) reads 1

Field normalized growth (entry CCC(CCC(C)C1CCC2C3CC=C4C[C@@H](OC(C)=O)CC[C@]4(C)C3CC[C@]12C)C(C)C (stereo not given in full) ) reads 0.989

Field normalized growth (entry CC[C@@H]1[C@@H](O)N2C3C[C@H]1C1C(O)[C@]4(C[C@@H]12)c1ccccc1N(C)[C@@H]34 (stereo not given in full) ) reads 0.974

Field normalized growth (entry C[C@@H]1C[C@@H]([C@H](O)CC2CC(=O)NC(=O)C2)C(=O)[C@@H](C)C1 ) reads 0.0565

Field normalized growth (entry NC(=O)c1cc[n+](CC2=C(C(=O)O)N3C(=O)C(NC(=O)C(c4ccccc4)S(=O)(=O)[O-])C3SC2)cc1 (stereo not given) ) reads 0.983

Field normalized growth (entry OC/C=C/c1ccc(O)c(O)c1 ) reads 0.963

Field normalized growth (entry C#C[C@]1(O)CCC2C3CCc4cc(O)ccc4C3CC[C@@]21C (stereo not given in full) ) reads 1.02

Field normalized growth (entry CC12CCCC(O)(C1)C1CC(C)(C)C1CC2 (stereo not given) ) reads 0.997

Field normalized growth (entry O=C(/C=C/c1ccc(O)c(O)c1)O[C@@H]1C[C@](O)(C(=O)O)C[C@@H](O)[C@H]1O ) reads 1.02

Field normalized growth (entry COc1ccccc1N1CCNCC1 ) reads 1.02

Field normalized growth (entry Nc1c(Br)cc(Br)cc1CNC1CCC(O)CC1 (stereo not given) ) reads 0.998

Field normalized growth (entry COc1ccccc1-c1cc(=O)c2c(OC)cccc2o1 ) reads 0.975

Field normalized growth (entry CCOP(=S)(OCC)SCCSCC ) reads 0.991

Field normalized growth (entry CN1CCc2cccc3c2C1Cc1ccc(O)c(O)c1-3 (stereo not given) ) reads 0.992

Field normalized growth (entry CC1=CC(=O)CC(C)(C)C1(O)/C=C/C(C)=C\C(=O)O (stereo not given) ) reads 0.971

Field normalized growth (entry CC1(C)CC2C1CCC1(C)OC2(C)CCC1O (stereo not given) ) reads 1.02

Field normalized growth (entry CC1CC2C(C(O)CC3(C)C2CCC3(O)C(=O)COC(=O)CCC(=O)O)C2(C)C=CC(=O)C=C12 (stereo not given) ) reads 0.993

Field normalized growth (entry C=CC1=C(C)/C(=C/c2[nH]c(Cc3[nH]c(/C=C4\NC(=O)C(C)=C4C=C)c(C)c3CCC(=O)O)c(CCC(=O)O)c2C)NC1=O ) reads 1.02

Field normalized growth (entry CC(=O)O[C@H]1C[C@@H](OC(C)=O)C(C)(C)C2C[C@@H](OC(C)=O)[C@]3(C)C(CC[C@@]4(C)[C@H](c5ccoc5)C(=O)[C@H]5O[C@]543)[C@]21C (stereo not given in full) ) reads 1.03

Field normalized growth (entry CC(=O)O[C@H]1CC[C@@]2(C)C(=CCC3C2CC[C@@]2(C)C3CC[C@@H]2C(C)CCCC(C)C)C1 (stereo not given in full) ) reads 1.02

Field normalized growth (entry CC1(C)C2CC(=O)O[C@@]3(C)C4=CC(=O)O[C@@H](c5ccoc5)[C@]4(C)CCC3[C@@]2(C)C=C[C@H]1O (stereo not given in full) ) reads 0.989

Field normalized growth (entry NC(=O)c1cnccn1 ) reads 1

Field normalized growth (entry S=c1[nH]c2ccccc2s1 ) reads 0.99
